# Test system: NCI-H929 complex spheroids, viability % test/control
# Assay Remarks: Anticancer human tumor NCI-H929 cell line growth inhibition [RAS];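 note: compound exposure lasted seven days before viability was read; 100% = DMSO vehicle control viability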
# Measurement Parameters: second compound 0.1 µM; first compound 0.0949 µM; hits give low values
Reported Metric: viability, T/C (%)
Report the value in % with no unit label.

Example entries and their recorded answers appear below.
CC1(C)CCC(Nc2ncc(C(F)(F)F)c(-c3c[nH]c4c(P(C)(C)=O)c(C#N)ccc34)n2)CN1 (centres undefined) + C#Cc1c(F)ccc2cc(O)cc(-c3ncc4c(N5CC6CCC(C5)N6)nc(OCC56CCCN5CC(F)C6)nc4c3F)c12    8.47
CC1(C)CCC(Nc2ncc(C(F)(F)F)c(-c3c[nH]c4c(P(C)(C)=O)c(C#N)ccc34)n2)CN1 (centres undefined) + C=CC(=O)N1CCN(c2nc(OCC3CCCN3C)nc3c(F)c(-c4nc(N)cc(C)c4C(F)(F)F)c(Cl)cc23)C(C)C1    7.35
CCc1c2c(nc3ccc(O)cc13)-c1cc3c(c(=O)n1C2)COC(=O)[C@]3(O)CC + C#Cc1c(F)ccc2cc(O)cc(-c3ncc4c(N5CC6CCC(C5)N6)nc(OCC56CCCN5CC(F)C6)nc4c3F)c12    2.48

In the following, a different compound is considered.
Fill in: viability, T/C of CCc1c2c(nc3ccc(O)cc13)-c1cc3c(c(=O)n1C2)COC(=O)[C@]3(O)CC + C=CC(=O)N1CCN(c2nc(OCC3CCCN3C)nc3c(F)c(-c4nc(N)cc(C)c4C(F)(F)F)c(Cl)cc23)C(C)C1 is ___
1.53
